- PROTOCOL_NOTES: Pilot PK study of orally applied KB-R7943 in control and STZ-induced diabetic rats (LC-MS/MS)
- Type: in vivo, rat
- SETTINGS: Wistar, rat, plasma, po, 10 mg/kg, STZ-diabetic rats, 10 mg/kg p.o. once
- Experimental: Chromatographic separation was achieved by injecting 5 μL of the sample extract (on each instrument) into a Zorbax SB-C8 150 mm × 4.6 mm × 1.8 μm column. The mobile phase was a mixture in a gradient mode of two components: solvent A - 0.1% formic acid in water and solvent B - 0.1% formic acid in acetonitrile. […] Analytes were determined by selecting two characteristic target reactions (MRM transitions) and the retention time of the analytes. […]
RECORDED_METRIC: Tmax (h)
# value in h; strip the unit string

Input N=C(N)SCCc1ccc(OCc2ccc([N+](=O)[O-])cc2)cc1 [KB-R7943] , output reported Tmax.
1

Hello, the source for this data is paper PMC10958225, in case you need it.
